Protein target, amino acids: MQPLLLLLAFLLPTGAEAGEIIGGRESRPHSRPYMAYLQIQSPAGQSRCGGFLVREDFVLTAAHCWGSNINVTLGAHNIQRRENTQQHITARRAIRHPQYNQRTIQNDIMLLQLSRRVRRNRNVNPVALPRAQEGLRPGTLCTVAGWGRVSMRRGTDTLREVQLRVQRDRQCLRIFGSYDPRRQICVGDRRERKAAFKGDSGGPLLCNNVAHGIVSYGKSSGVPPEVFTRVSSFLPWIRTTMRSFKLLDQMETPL
Bridge positions count the residues as written; N and C are the ends. Square brackets hold non-standard residues; d marks the D form. Peptide text beside a SMILES is read from it. Phe(4-NO2) = N[C@@H](Cc1ccc([N+](=O)[O-])cc1)C(=O)O; Phe(4-Cl) = N[C@@H](Cc1ccc(Cl)cc1)C(=O)O
Measured Ki accompanies every entry in the list below.

molecule	value operator	Ki, nM
CC[C@H](C)[C@@H]1NC(=O)[C@@H]2CCCN2C(=O)[C@@H]2CCCN2C(=O)[C@H](CCC(=O)O)NC(=O)[C@H](CO)NC(=O)[C@H](Cc2ccc(O)cc2)NC(=O)[C@H](CCC(N)=O)NC(=O)[C@@H]2CSSC[C@H](NC1=O)C(=O)N[C@@H](Cc1ccccc1)C(=O)N1CCC[C@H]1C(=O)N[C@@H](CC(=O)O)C(=O)NCC(=O)N[C@@H](CCCNC(=N)N)C(=O)N2 (cyclo(CFPDGRCQYSEPPI); disulfide 1-7)	=	0.26
N=C(N)NCCC[C@@H]1NC(=O)CNC(=O)[C@H](CC(=O)O)NC(=O)[C@@H]2CCCN2C(=O)[C@H](Cc2ccccc2)NC(=O)[C@@H]2CSSC[C@H](NC1=O)C(=O)N[C@@H](CCC(N)=O)C(=O)N[C@@H](Cc1ccc([N+](=O)[O-])cc1)C(=O)N[C@@H](CO)C(=O)N[C@@H](CCC(=O)O)C(=O)N1CCC[C@H]1C(=O)N1CCC[C@H]1C(=O)N[C@@H](CCC(=O)O)C(=O)N2 (cyclo(CFPDGRCQ[Phe(4-NO2)]SEPPE); disulfide 1-7)	=	5200
CC[C@H](C)[C@@H]1NC(=O)[C@@H]2CCCN2C(=O)[C@@H]2CCCN2C(=O)[C@H](CCC(=O)O)NC(=O)[C@H](CO)NC(=O)[C@H](Cc2ccc(O)cc2)NC(=O)[C@H]([C@@H](C)O)NC(=O)[C@@H]2CSSC[C@H](NC1=O)C(=O)N[C@@H](Cc1ccccc1)C(=O)N1CCC[C@H]1C(=O)N[C@@H](CC(=O)O)C(=O)NCC(=O)N[C@@H](CCCNC(=N)N)C(=O)N2 (cyclo(CFPDGRCTYSEPPI); disulfide 1-7)	=	8.2
N=C(N)NCCC[C@@H]1NC(=O)CNC(=O)[C@H](CC(=O)O)NC(=O)[C@@H]2CCCN2C(=O)[C@H](Cc2ccccc2)NC(=O)[C@@H]2CSSC[C@H](NC1=O)C(=O)N[C@@H](CCC(N)=O)C(=O)N[C@@H](Cc1ccc(Cl)cc1)C(=O)N[C@@H](CO)C(=O)N[C@@H](CCC(=O)O)C(=O)N1CCC[C@H]1C(=O)N1CCC[C@H]1C(=O)N[C@@H](CCC(=O)O)C(=O)N2 (cyclo(CFPDGRCQ[Phe(4-Cl)]SEPPE); disulfide 1-7)	=	150
CC[C@H](C)[C@@H]1NC(=O)[C@@H]2CCCN2C(=O)[C@@H]2CCCN2C(=O)[C@H](CCC(=O)O)NC(=O)[C@H](CO)NC(=O)[C@H](Cc2ccc(O)cc2)NC(=O)[C@H](C)NC(=O)[C@@H]2CSSC[C@H](NC1=O)C(=O)N[C@@H](Cc1ccccc1)C(=O)N1CCC[C@H]1C(=O)N[C@@H](CC(=O)O)C(=O)NCC(=O)N[C@@H](Cc1ccccc1)C(=O)N2 (cyclo(AYSEPPICFPDGFC); disulfide 8-14)	<	0.1
